assay: qHTS screen for small molecules that induce genotoxicity in human embryonic kidney (HEK293T) cells expressing luciferase-tagged ELG1; details: HEK293T ELG1-luciferase reporter, luminescence, 16 h; series mostly up to 46 µM; note: nearly all actives have a fitted effect of over 60% in size
Out of some 330,000 compounds screened, about 4,200 (1.3%) were called active. About 6% were inconclusive and are not listed. Calls come from the whole dose curve; as a rule, active = well fitted activation curve with a large enough effect; inconclusive = small, poorly fitted or top-dose-only effect; inactive = no such curve, though single readings can be large or run the other way. The entries come from a sample that favours actives as a whole.
Select the correct class. Options are active, inactive and nothing else.

Outcome? `CN(C)C(=O)Oc1ccc(OCc2cccc[n+]2C)cc1` inactive

Outcome? `CN(C)C(=O)Oc1ccc2c(c1)O/C(=C\c1ccccc1)C2=O` active

Outcome? `CCC(=O)c1ccc(OCC(=O)N2CCN(CC(=O)Nc3ccc(C)cc3)CC2)cc1` inactive

Outcome? `O=C(/C=C/c1cccs1)c1cc(Cl)ccc1OC(=O)N1CCOCC1` inactive

Outcome? `CC[C@H]1CN2CCc3cc(OC)c(OC)cc3[C@@H]2C[C@@H]1C[C@H]1NCCc2cc(OC)c(OC)cc21` inactive

Outcome? C[C@]12CC[C@H](O)CC1=C([N+](=O)[O-])CC1C2CC[C@@]2(C)C1CC[C@@H]2O (stereo partly specified) inactive

Data provenance is PubChem BioAssay AID504466.
